# Test system: LOX IMVI
# run description: NCI tumour cell line growth inhibition, 48 h
Activity calls are given as the source filed them. No stated cut-off is given here; in the data, active = GI50 up to about 1.1 µM and inactive = higher.
metric name: GI50

compound=O=C(O)C(F)(F)C(F)(F)C(F)(F)C(F)(F)C(=O)O metric_name=GI50 assay_result="> 100 µM (inactive)"
compound=CC1(C)OC[C@@H]([C@@]2(COC(c3ccccc3)(c3ccccc3)c3ccccc3)CC=CC(=O)O2)O1 metric_name=GI50 assay_result="32.4 µM (inactive)"
compound=Cn1c2ccccc2c(=NNc2ccc(S(N)(=O)=O)cc2)c2ccccc21 metric_name=GI50 assay_result="9.29 µM (inactive)"
compound="CC1(C)[C@H]2CC[C@@]13C(=O)N1C(=O)O[C@@H]([C@H]1Cl)C(Cl)(COCc1ccccc1)C(=O)OCCO[C@H]3C2 (stereo partly drawn)" metric_name=GI50 assay_result="74 µM (inactive)"
compound="C=C1[C@H](OCC(C)C)[C@@H](OC(=O)C(C)CC)[C@@H](O)C(C)(C)/C=C/[C@H](C)C(=O)[C@@]2(O)C[C@H](C)[C@H](O)[C@@H]2[C@H]1OC(=O)C(C)CC (stereo partly drawn)" metric_name=GI50 assay_result="4.2 µM (inactive)"

For each of the items listed, what is its GI50?
1. COC(=O)c1sc2c(=O)c(C(=O)OC)c(C(=O)OC)sc2c(=O)c1C(=O)OC
2. C=C(C=O)[C@@H]1C2OC(=O)C(=C)[C@@H]2CC(O)[C@@]1(C)CC (stereo partly drawn)
3. CCOC(=O)[C@@]1(C(C)=O)CC(C)=C(C)C[S@@+]1[O-]

["73.3 µM (inactive)", "15.8 µM (inactive)", "> 100 µM (inactive)"]

* * *

# Tested on: DMS-114
# run description: NCI tumour cell line growth inhibition, 48 h
Calls of active or inactive are those of the source. Cut-off read from the data, not from the text of the source: active = GI50 up to about 1.1 µM and inactive = higher.
metric name: GI50

# count of solved cases: 3
compound="C[C@]1(CO)CCC[C@@]2(C)C1CC[C@H]1CC3C[C@]12CC[C@]3(C)O (stereo partly drawn)" metric_name=GI50 assay_result="40.2 µM (inactive)"
compound=CCN(CC)CCCNC(=O)Cc1ccccc1Nc1c(Cl)cccc1Cl metric_name=GI50 assay_result="13.6 µM (inactive)"
compound=O=c1c(Br)cc2nc3ccccc3sc-2c1Br metric_name=GI50 assay_result="17.9 µM (inactive)"

Hi! Can you tell me GI50 for each of these compounds?
1. CCC(O)CCCCCCCCCCCCCCC(=O)O (stereo not drawn)
2. CC(=O)O[C@H]1CCC(C)=CCC[C@@]2(C)C(CC[C@@H]2[C@@H](C)/C=C/C(C)C)c2ccc(cc2C(=O)O)C1 (stereo partly drawn)
3. CSc1ccc(-c2cn3ccsc3n2)c(O)c1
4. C=C1C2Oc3ccccc3C1N(c1ccccc1)O2 (stereo not drawn)

1. > 100 µM (inactive)
2. 4.49 µM (inactive)
3. 26.1 µM (inactive)
4. 23.3 µM (inactive)

Dear colleague, could you send me GI50 for each of the items below? Thanks.
1. COC(=O)C1=CC(=O)C(C(=O)Nc2ccc(OC)cc2)C(c2ccccc2)O1 (stereo not drawn)
2. COc1cccc2c1C(=O)c1c(O)c3c(c(O)c1C2=O)C[C@@](O)(C(C)=O)C[C@@H]3OC1CC([N+]([O-])(Cc2ccccc2)Cc2ccccc2)C(O)C(C)O1 (stereo partly drawn)
3. CCOC(=O)c1sc(Nc2cc(Cl)ccc2Cl)nc1C
4. [N-]=[N+]=Nc1ccccc1Oc1ccccc1
5. COc1cc(C)c(O)c(C(=O)O)c1

1: 29.7 µM (inactive); 2: 1.33 µM (inactive); 3: 93.3 µM (inactive); 4: > 100 µM (inactive); 5: > 100 µM (inactive)

Go through the items and report each one's GI50.
1. Cc1cccc(C)c1NC(=O)C(=O)C(C(=O)c1ccccc1-c1ccccc1)C1OC(=O)c2ccccc21 (stereo not drawn)
2. Cc1ccc([N+](=O)[O-])cc1NC(=O)C(=O)Cc1occc(=O)c1O
3. CCCCc1c2c(nc3c1CCCC3=O)C(=O)CCC2
4. NC1=NCCC1(c1ccccc1)c1ccccn1 (stereo not drawn)
5. NC(CCCNc1cccc(O)c1)C(=O)O (stereo not drawn)
6. CCN(CC)CCCNC(=O)C1COc2cc(-c3cc(=O)c4ccccc4o3)ccc2O1 (stereo not drawn)
7. CCN(CC)CCC1CC/C(=C\c2ccc(OC)cc2)C1=O (stereo not drawn)

1: 13.7 µM (inactive); 2: > 100 µM (inactive); 3: > 100 µM (inactive); 4: > 100 µM (inactive); 5: > 100 µM (inactive); 6: 25.4 µM (inactive); 7: 38.6 µM (inactive)

Dear colleague, could you please provide GI50 for the compounds listed below?
1. CC[N+]1(C)CCC(O)(c2ccc(OC)cc2)C(C(=O)c2ccc(OC)cc2)C1 (stereo not drawn)
2. Cc1ccc(/C=C/C(=O)CCN(C)C)cc1
3. CCCCCCCCCCCCCC/C(C(=O)OC)=C(/O)C(=O)OCC
4. O=C1c2ccccc2C2CCC1c1ccccc12 (stereo not drawn)

1: 19.9 µM (inactive); 2: 18.3 µM (inactive); 3: > 100 µM (inactive); 4: 19.4 µM (inactive)

Entry source: ChEMBL document CHEMBL1201862
